- system_tested: HLA-A*26:01
- test_protocol: IEDB peptide-MHC binding, purified MHC/direct/fluorescence; filed as Kd, often an IC50 or EC50 that approximates it; bounds were set here for any values at or beyond the usual limits of such assays
- reported_conditions: source organism: Vibrio vulnificus CMCP6
readout: Kd (nM)
I only need the number, in nM, no unit after it.

Provide one value: measured Kd of HVIASMRHF
2

---

- system_tested: HLA-A*23:01
- test_protocol: IEDB peptide-MHC binding, purified MHC/competitive/radioactivity; filed as Kd, often an IC50 or EC50 that approximates it; bounds were set here for any values at or beyond the usual limits of such assays
- reported_conditions: source organism: SARS coronavirus Tor2
pKd: −log10 of the molar value.
Respond with true (1) for pKd values of 6 and above, false (0) for values below.

AYATAQEAY | false (0)
ATVAYFNMVY | false (0)
GAEHVDTSY | false (0)
TQDLFLPFY | false (0)

Does the sequence LYYPSARIVY have recorded pKd that is 6 or more?
false (0)

Please tell me: is the sequence FMMSRRRLL at or over 6 in terms of pKd?
true (1)

// inclusive: pKd at least 6? input: AYMLFTKFFY
true (1)

Identify whether the reported pKd of the following sequence is 6 or greater: MYLKLRSETL
true (1)

This collection of values is drawn from the Immune Epitope Database (IEDB).
